target: GDP-loaded KRAS G12D (Homo sapiens (Human), UniProt P01116, G12D); assay: KRAS G12D (GDP) biochemical assay (TR-FRET probe displacement); details: 2 hours
Sequence (P01116-2 other isoform, or with tags, fused parts or gaps G12D): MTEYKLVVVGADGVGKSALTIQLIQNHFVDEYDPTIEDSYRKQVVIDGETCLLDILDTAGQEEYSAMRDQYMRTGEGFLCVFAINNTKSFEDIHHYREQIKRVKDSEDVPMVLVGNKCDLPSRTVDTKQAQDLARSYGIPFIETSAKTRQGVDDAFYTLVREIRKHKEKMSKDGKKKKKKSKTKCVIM
Use IC50 to assign classes; range list: bottom range = under 0.7 nM, center range = from 0.7 nM up to 4 nM, top range = 4 nM and over

Take a look at these entries with their results.
compound | assayed.target | class.name
C#Cc1c(F)ccc2cc(O)cc(-c3nc4c5c(nc(OCC6(CN7CC[C@H](C(F)(F)F)C7)CC6)nc5c3F)N3C[C@H]5CC[C@H](N5)[C@H]3CO4)c12 [Example 44] | GDP-loaded KRAS G12D (Homo sapiens (Human), UniProt P01116, G12D) | center range
C#Cc1c(F)ccc2cc(O)cc(-c3nc4c5c(nc(OC[C@@]67CCCN6C[C@H](F)C7)nc5c3F)N3C[C@H]5CC[C@H](N5)[C@@H]3[C@@H](CC)C4)c12 [Example 92] | GDP-loaded KRAS G12D (Homo sapiens (Human), UniProt P01116, G12D) | center range
C#Cc1c(F)ccc2cccc(-c3nc4c5c(nc(OC[C@@]67CCCN6[C@H](COc6cc(C(F)F)ncn6)CC7)nc5c3F)N3C[C@H]5CC[C@H](N5)[C@H]3CCC4)c12 [Example 205] | GDP-loaded KRAS G12D (Homo sapiens (Human), UniProt P01116, G12D) | bottom range
C#Cc1c(F)ccc2cc(O)cc(-c3nc4c5c(nc(OC[C@@]67CCCN6C[C@H](F)C7)nc5c3F)N3C[C@H]5CC[C@H](N5)C3C[C@@H]4C)c12 (stereo in doubt) [Example 94] | GDP-loaded KRAS G12D (Homo sapiens (Human), UniProt P01116, G12D) | bottom range
Oc1cc(-c2nc3c4c(nc(OC[C@@]56CCCN5C[C@H](F)C6)nc4c2F)N2C[C@H]4CC[C@H](N4)[C@@H]2CO3)c2ccccc2c1 [Example 19] | GDP-loaded KRAS G12D (Homo sapiens (Human), UniProt P01116, G12D) | top range
C#Cc1c(F)ccc2cc(O)cc(-c3nc4c5c(nc(OC[C@@]67CCCN6[C@H](COC(=O)N6CCCCCC6)CC7)nc5c3F)N3C[C@H]5CC[C@H](N5)[C@H]3CO4)c12 [Example 38] | GDP-loaded KRAS G12D (Homo sapiens (Human), UniProt P01116, G12D) | bottom range

Request: Lab note: which band did Oc1cc(-c2nc3c4c(nc(OC[C@@]56CCCN5C[C@H](F)C6)nc4c2F)N2C[C@H]4CC[C@H](N4)[C@H]2CO3)c2c(SC(F)(F)F)c(F)ccc2c1 [Example 54] land in?
Result: center range

Request: Lab note: which band did C#Cc1c(F)ccc2cccc(-c3nc4c5c(nc(OC[C@@]67CCCN6C[C@@H](OC(C(F)(F)F)(C(F)(F)F)C(F)(F)F)C7)nc5c3F)N3C[C@H]5CC[C@H](N5)[C@H]3CC4)c12 (stereo in doubt) [Example 135] land in?
Result: top range

Request: Lab note: which band did C#Cc1c(F)c(F)cc2cccc(-c3nc4c5c(nc(OC[C@@]67CCCN6C[C@H](F)C7)nc5c3F)N3C[C@H]5CC[C@H](N5)[C@H]3CO4)c12 [Example 62] land in?
Result: top range

Request: Lab note: which band did C#Cc1c(F)ccc2cccc(-c3nc4c5c(nc(OC[C@@]67CCCN6[C@H](COC(C(F)(F)F)(C(F)(F)F)C(F)(F)F)CC7)nc5c3F)N3C[C@H]5CC[C@H](N5)[C@@H]3[C@@H](C)C4)c12 [Example 83] land in?
Result: center range

Request: Lab note: which band did C#Cc1c(F)ccc2cc(O)cc(-c3nc4c5c(nc(OC[C@@]67CCCN6C[C@H](OC(C(F)(F)F)(C(F)(F)F)C(F)(F)F)CC7)nc5c3F)N3C[C@H]5CC[C@H](N5)[C@H]3CO4)c12 [Example 56] land in?
Result: top range

Request: Lab note: which band did C#Cc1c(F)ccc2cc(O)cc(-c3nc4c5c(nc(OCC6(CN7CCC(Oc8ccnc(C(F)(F)F)n8)CC7)CC6)nc5c3F)N3C[C@H]5CC[C@H](N5)[C@H]3CC4)c12 [Example 180] land in?
Result: center range

Request: Lab note: which band did C#Cc1c(F)ccc2cc(N)cc(-c3cc4c5c(nc(OC[C@@]67CCCN6C[C@H](F)C7)nc5c3F)N3C[C@H]5CC[C@H](N5)[C@@H]3[C@@H](C)C4)c12 [Example 193] land in?
Result: bottom range

Request: Lab note: which band did C#Cc1c(F)ccc2cc(O)cc(-c3nc4c5c(nc(OCC6(CN7CCC(OC)(C(F)(F)F)CC7)CC6)nc5c3F)N3C[C@H]5CC[C@H](N5)[C@H]3CC4)c12 [Example 168] land in?
Result: bottom range

Request: Lab note: which band did Oc1cc(-c2nc3c4c(nc(OC[C@@]56CCCN5C[C@H](F)C6)nc4c2F)N2C[C@H]4CC[C@H](N4)[C@H]2CO3)c2cc(F)ccc2c1 [Example 8] land in?
Result: center range

Request: Lab note: which band did Fc1c(-c2cccc3ccccc23)nc2c3c(nc(OC[C@@]45CCCN4C[C@H](F)C5)nc13)N1C[C@H]3CC[C@H](N3)[C@H]1CO2 [Example 46] land in?
Result: top range

Request: Lab note: which band did C#Cc1c(F)ccc2cccc(-c3nc4c5c(nc(OC[C@@]67CCCN6[C@H](COc6cccc(S(F)(F)(F)(F)F)c6)CC7)nc5c3F)N3C[C@H]5CC[C@H](N5)[C@H]3CCC4)c12 [Example 118] land in?
Result: bottom range

Request: Lab note: which band did Oc1cc(-c2nc3c4c(nc(OC[C@@]56CCCN5C[C@H](F)C6)nc4c2F)N2C[C@H]4CC[C@H](N4)[C@H]2CO3)c2c(C=C(F)F)c(F)ccc2c1 [Example 10] land in?
Result: top range
